// provenance: PubChem BioAssay (NCI)

In this section we review reported growth values for a set of compounds.
test system: UO-31 renal; assay: NCI-60 one-dose screen, 48 h (100 = growth as untreated, 0 = no growth, -100 = all killed); settings: 10 µM unless noted
About 83,000 compounds went through this panel and 20% of them were active in at least one assay; those are over-represented in the sample as a whole.
Give the quantity in %, number only.

{"compound": "O=C(CCC(=O)c1nc2ncccc2[nH]1)NN1C(=O)CSC1c1ccc(Cl)cc1 (stereo not drawn)", "tested_on": "UO-31 renal", "unit_of_measure": "%", "growth": 70.7}

Specify growth for `CCOC(=O)c1c2c(n3ccccc13)C(=O)c1ncccc1C2=O` and stop.
1.86

Look up and report measured growth for this entry: `CCOC(=O)c1ccc2c(c1)c1c(C)c3ccncc3c(C)c1n2C`
-13.4
